FYI, the data here is from paper PMC4091967.

Reported viability at 72 h, 50 μM values for the following compounds.
EXPERIMENT_DESCRIPTION: Trypan blue exclusion cell viability assay on normal cells, 72 h
Assay type: cell-based, human
TEST_PARAMETERS: human, HIFF (human infant foreskin fibroblasts)
Enter your answer as a number in %; do not include the unit.

COMPOUND: O=c1c(O)c(-c2cccc(I)c2)oc2cc(O)cc(O)c12
UNIT: %
RECORDED_VALUE: 46.8

# query: viability at 72 h, 50 μM of entry O=C(c1ccccc1)c1ccc(-c2oc3cc(O)cc(O)c3c(=O)c2O)cc1
32.3

Request the reported viability at 72 h, 50 μM associated with O=c1c(O)c(-c2ccc(O)cc2)oc2cc(O)cc(O)c12 [Kaempferol, reference compound]
73.8

# input compound: O=c1c(O)c(-c2ccc(I)cc2)oc2cc(O)cc(O)c12 ; wanted: its viability at 72 h, 50 μM
34.8

Field request: viability at 72 h, 50 μM | item: O=C(c1ccccc1)c1cccc(-c2oc3cc(O)cc(O)c3c(=O)c2O)c1
34.8

Please give the measured viability at 72 h, 50 μM for this compound: O=c1c(O)c(-c2ccccc2)oc2cc(O)cc(O)c12 [5f, Galangin, reference compound]
48

Entry COc1ccc(-c2oc3cc(O)cc(O)c3c(=O)c2O)cc1 [Kaempferide, reference compound] : reported viability at 72 h, 50 μM = ?
52.2

# get_value(readout='viability at 72 h, 50 μM', item= O=c1c(O)c(-c2cccc(-c3ccccc3)c2)oc2cc(O)cc(O)c12 )
34.6

Requested read-out: viability at 72 h, 50 μM. Entry: Cc1ccc(-c2oc3cc(O)cc(O)c3c(=O)c2O)cc1
37.5

Which viability at 72 h, 50 μM value is on record for O=c1c(O)c(-c2ccc(O)c(O)c2)oc2cc(O)cc(O)c12 [Quercetin, reference compound] ?
84.5

For O=c1c(O)c(-c2ccc(-c3ccccc3)cc2)oc2cc(O)cc(O)c12 , what is its reported viability at 72 h, 50 μM?
34.4

* * *

Test system: PC-3 prostate cancer cells
EXPERIMENT_DESCRIPTION: Trypan blue exclusion cell viability assay
Type: cell-based, human
TEST_PARAMETERS: Homo sapiens, PC-3, 72 h, read-out: EC50 values in PC-3 cells, trypan blue exclusion, 72 h, mean ± SEM
Assign labels as follows, please: T for EC50 below 9 µM; F for EC50 equal to or exceeding 9 µM.

Examples from the recorded data:
COMPOUND: O=c1c(O)c(-c2ccc(-c3ccccc3)cc2)oc2cc(O)cc(O)c12
ASSIGNED_CLASS: T
//
COMPOUND: O=c1c(O)c(-c2ccc(O)c(O)c2)oc2cc(O)cc(O)c12 [Quercetin, reference compound]
ASSIGNED_CLASS: F

Report whether reported EC50 is lower than 9 µM (strictly) for O=c1c(O)c(-c2ccccc2)oc2cc(O)cc(O)c12 [5f, Galangin, reference compound]
F

hey, is EC50 for O=c1c(O)c(-c2ccc(I)cc2)oc2cc(O)cc(O)c12 lower than 9 µM or not?
T

Is EC50 strictly under 9 µM for the entry COc1ccc(-c2oc3cc(O)cc(O)c3c(=O)c2O)cc1 [Kaempferide, reference compound] ?
F

Lab log: compare recorded EC50 with 9 µM; is it strictly lower for O=c1c(O)c(-c2cccc(I)c2)oc2cc(O)cc(O)c12 ?
F

Record O=c1c(O)c(-c2ccc(O)cc2)oc2cc(O)cc(O)c12 [Kaempferol, reference compound] : is its EC50 strictly below 9 µM?
F

Strictly below 9 µM: is that where EC50 of O=C(c1ccccc1)c1cccc(-c2oc3cc(O)cc(O)c3c(=O)c2O)c1 sits?
F

State whether 9 µM exceeds EC50 recorded for Cc1ccc(-c2oc3cc(O)cc(O)c3c(=O)c2O)cc1 .
F

Hi there! Is EC50 for O=C(c1ccccc1)c1ccc(-c2oc3cc(O)cc(O)c3c(=O)c2O)cc1 below 9 µM, do you know?
F

Determine whether this compound shows EC50 lower than 9 µM (ties excluded): O=c1c(O)c(-c2cccc(-c3ccccc3)c2)oc2cc(O)cc(O)c12
T

* * *

Tested on: DU-145 prostate cancer cells
EXPERIMENT_DESCRIPTION: Trypan blue exclusion cell viability assay
Type: cell-based, human
TEST_PARAMETERS: read-out: EC50 values in DU-145 cells; trypan blue exclusion, 72 h, mean ± SEM
Reported pEC50 values for the following compounds.
Scale explanation: pEC50 corresponds to minus log10 of a concentration expressed in moles per litre.

COMPOUND: O=c1c(O)c(-c2ccc(O)c(O)c2)oc2cc(O)cc(O)c12 [Quercetin, reference compound]
RECORDED_VALUE: 4.41

Moving on to another compound below.
Consider the compound shown here: COc1ccc(-c2oc3cc(O)cc(O)c3c(=O)c2O)cc1 [Kaempferide, reference compound] What is its recorded pEC50?
4.70

* * *

Tested on: DU-145 prostate cancer cells
EXPERIMENT_DESCRIPTION: Trypan blue exclusion cell viability assay
Format: cell-based, human
TEST_PARAMETERS: read-out: EC100 - EC50 values in DU-145 cells; difference between EC100 and EC50, mean ± SEM
Please use yes for EC50 under 20 µM and no for everything else, ties included.

Use the examples below as a reference point.
COMPOUND: COc1ccc(-c2oc3cc(O)cc(O)c3c(=O)c2O)cc1 [Kaempferide, reference compound]
TARGET_SYSTEM: DU-145 prostate cancer cells
ASSIGNED_CLASS: yes
--
COMPOUND: Cc1ccc(-c2oc3cc(O)cc(O)c3c(=O)c2O)cc1 [5e]
TARGET_SYSTEM: DU-145 prostate cancer cells
ASSIGNED_CLASS: yes
--
COMPOUND: O=c1c(O)c(-c2ccc(O)cc2)oc2cc(O)cc(O)c12 [Kaempferol, reference compound]
TARGET_SYSTEM: DU-145 prostate cancer cells
ASSIGNED_CLASS: no

Here's the next entry for you.
Is it true that EC50 reported for O=c1c(O)c(-c2ccc(O)c(O)c2)oc2cc(O)cc(O)c12 [Quercetin, reference compound] is less than 20 µM?
no

* * *

System: DU-145 prostate cancer cells
EXPERIMENT_DESCRIPTION: Alamar Blue cell viability assay
Format: cell-based
TEST_PARAMETERS: Homo sapiens, DU-145, read-out: EC50 value in Alamar Blue
PROPERTY_MEASURED: EC50 (µM)
Give the value, in units of µM, as a plain number.

MOLECULE: COc1ccc(-c2oc3cc(O)cc(O)c3c(=O)c2O)cc1 [Kaempferide, reference compound]
UNIT: µM
EC50: 30.1

Next molecule, please.
Could you tell me which EC50 is on file for O=c1c(O)c(-c2ccc(O)c(O)c2)oc2cc(O)cc(O)c12 [Quercetin, reference compound] ?
55.1

* * *

System: DU-145 prostate cancer cells
EXPERIMENT_DESCRIPTION: Trypan blue exclusion cell viability assay
Type: cell-based, human
TEST_PARAMETERS: Homo sapiens, DU-145, 72 h, read-out: EC100 values in DU-145 cells, trypan blue exclusion, 72 h, mean ± SEM
Output true (1) for EC100 not less than 50 µM; output false (0) otherwise.

Use these answered entries as a reference point.
COMPOUND: O=c1c(O)c(-c2ccccc2)oc2cc(O)cc(O)c12 [5f, Galangin, reference compound]
TARGET_SYSTEM: DU-145 prostate cancer cells
ASSIGNED_CLASS: false (0)
--
COMPOUND: O=c1c(O)c(-c2ccc(O)c(O)c2)oc2cc(O)cc(O)c12 [Quercetin, reference compound]
TARGET_SYSTEM: DU-145 prostate cancer cells
ASSIGNED_CLASS: true (1)

Answer whether EC100 of COc1ccc(-c2oc3cc(O)cc(O)c3c(=O)c2O)cc1 [Kaempferide, reference compound] is greater than or equal to 50 µM.
false (0)

In plain terms: is recorded EC100 at least 50 µM for O=c1c(O)c(-c2ccc(O)cc2)oc2cc(O)cc(O)c12 [Kaempferol, reference compound] ?
true (1)

Exam item: decide whether the reported EC100 for O=C(c1ccccc1)c1ccc(-c2oc3cc(O)cc(O)c3c(=O)c2O)cc1 is at least 50 µM.
false (0)
